# Tested on: TNF production or secretion in mouse peritoneal macrophages
# MEASUREMENT_PROTOCOL: Inhibitory effect on TNF production or secretion in mouse peritoneal macrophages (30 μM)
# Type: cell-based, mouse (BALB/c)
# SETUP_CONDITIONS: Mus musculus; 30 μM compound; LPS 10 μg/ml, 18 hours; TNF by L929 bioassay
Where a name gives a salt, the structure may show the parent alone.
PROPERTY_MEASURED: inhibition at 30 µM (%)
Output spec: scalar in %, unitless text.

Worked cases, inhibition at 30 µM given:
CC(C)CN1C2Cc3cc4c(cc3C1Cc1cc3c(cc12)OCO3)OCO4: 36
CCOC(=O)C(=O)N1C2Cc3cc4c(cc3C1Cc1cc3c(cc12)OCO3)OCO4: 69

Incoming: Tell me the measured inhibition at 30 µM of O=C(Oc1ccccc1)N1C2Cc3cc4c(cc3C1Cc1cc3c(cc12)OCO3)OCO4 , please.
Outgoing: 27

Incoming: Tell me the measured inhibition at 30 µM of CCCCN1C2Cc3cc4c(cc3C1Cc1cc3c(cc12)OCO3)OCO4 , please.
Outgoing: -37

Incoming: Tell me the measured inhibition at 30 µM of CC(=O)N1C2Cc3cc4c(cc3C1Cc1cc3c(cc12)OCO3)OCO4 , please.
Outgoing: 95

Incoming: Tell me the measured inhibition at 30 µM of CN1C2Cc3cc4c(cc3C1Cc1cc3c(cc12)OCO3)OCO4 , please.
Outgoing: 86

Incoming: Tell me the measured inhibition at 30 µM of O=CN1C2Cc3cc4c(cc3C1Cc1cc3c(cc12)OCO3)OCO4 , please.
Outgoing: 84

Incoming: Tell me the measured inhibition at 30 µM of CCC(=O)N1C2Cc3cc4c(cc3C1Cc1cc3c(cc12)OCO3)OCO4 , please.
Outgoing: 94

Incoming: Tell me the measured inhibition at 30 µM of O=C(CCO)N1C2Cc3cc4c(cc3C1Cc1cc3c(cc12)OCO3)OCO4 , please.
Outgoing: 83

Incoming: Tell me the measured inhibition at 30 µM of NCCC(=O)N1C2Cc3cc4c(cc3C1Cc1cc3c(cc12)OCO3)OCO4 , please.
Outgoing: -1

Incoming: Tell me the measured inhibition at 30 µM of O=C(CO)N1C2Cc3cc4c(cc3C1Cc1cc3c(cc12)OCO3)OCO4 , please.
Outgoing: 85

Incoming: Tell me the measured inhibition at 30 µM of CCOC(=O)CC(=O)N1C2Cc3cc4c(cc3C1Cc1cc3c(cc12)OCO3)OCO4 , please.
Outgoing: 77

Incoming: Tell me the measured inhibition at 30 µM of c1coc(CN2C3Cc4cc5c(cc4C2Cc2cc4c(cc23)OCO4)OCO5)c1 [Example 3, hydrochloride] , please.
Outgoing: -99

Incoming: Tell me the measured inhibition at 30 µM of NCC(=O)N1C2Cc3cc4c(cc3C1Cc1cc3c(cc12)OCO3)OCO4 , please.
Outgoing: 20

Incoming: Tell me the measured inhibition at 30 µM of CCCC(=O)N1C2Cc3cc4c(cc3C1Cc1cc3c(cc12)OCO3)OCO4 , please.
Outgoing: 86

Incoming: Tell me the measured inhibition at 30 µM of O=C(O)CC(=O)N1C2Cc3cc4c(cc3C1Cc1cc3c(cc12)OCO3)OCO4 , please.
Outgoing: 15

Incoming: Tell me the measured inhibition at 30 µM of NCCCC(=O)N1C2Cc3cc4c(cc3C1Cc1cc3c(cc12)OCO3)OCO4 , please.
Outgoing: 35
